The values you see were collected from paper PMC9482650.

tgt: GORASP1, Q9BQQ3
Sequence (Q9BQQ3 1-208): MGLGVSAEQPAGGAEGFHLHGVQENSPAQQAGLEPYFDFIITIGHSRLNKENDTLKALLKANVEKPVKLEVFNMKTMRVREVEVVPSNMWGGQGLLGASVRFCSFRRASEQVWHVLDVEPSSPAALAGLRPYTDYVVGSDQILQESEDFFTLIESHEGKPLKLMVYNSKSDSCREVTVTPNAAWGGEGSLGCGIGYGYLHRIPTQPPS
test.method.notes: holdup assay
Parameters: key: below the threshold = too weak to quantify, mostly under pKd 3.1 to 4
study.conditions: plain residues with an end cap or a label only (N-terminal biotin on a linker: ado-ado)

binder: DDASLPVSDV [PLEKHA1, Q9HB21]
pKd: below the threshold

binder: IDESKKEWLI [CNTNAP2, Q9UHC6]
pKd: 4.25

binder: DTKNYKQTSV [CRIPT, Q9P021]
pKd: below the threshold

binder: EKCGKEFSEF [PRKACA, P17612]
pKd: below the threshold
